# Measurement Target: Calmodulin-1 (Homo sapiens) (UniProt P0DP23)
# Test Protocol: CALM1 binders on microarrays, EGTA buffer, profiling panel, biochemical, small-molecule microarray, Cy5-labelled CALM1 (AID 1111);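 note: labelled calmodulin applied in Tris saline Tween buffer holding calcium plus EGTA and DTT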
# Experimental Conditions: Cy5-CALM1 binding fluorescence, higher = more signal
Entries annotated with measured composite z-score
// return just the number, without any unit appended

Solved entries:
* COC(=O)[C@@]1(Cc2ccc(F)cc2)[C@H]2c3cc(C(=O)N4CCCC4)n(CCO)c3C[C@H]2CN1C(=O)c1ccccc1 | -0.07
* C=CCNC(=O)[C@H]1[C@@H]2C(=O)O[C@@H](c3ccccc3)[C@@H](c3ccccc3)N2[C@@H](c2ccc(O)cc2)[C@]12C(=O)Nc1ccc(C#CC3=CCCCC3)cc12 | 0.887
* COC(=O)[C@@]1(Cc2ccc(OC)cc2)[C@@H]2[C@@H](CC(=O)[C@H]2CC(=O)C(=O)N2CCCC2)CN1C(=O)c1ccccc1 | 2.05
* COC(=O)Cn1c(C(=O)N(C)C)cc2c1C[C@H]1CN(C(=O)c3ccccc3)[C@@](Cc3ccc(OC)cc3)(C(=O)OC)[C@@H]21 | 0.966
* COCCOC(=O)N1C(=O)[C@@]2(c3cc(C#CC4(O)CCCCCC4)ccc31)[C@H](c1ccc(OCCO)cc1)N1[C@H](c3ccccc3)[C@H](c3ccccc3)OC(=O)[C@H]1[C@@H]2C(=O)N1CCCCCCC1 | 2.18
* CCOC(=O)C[C@H]1[C@H](OC(=O)Cc2ccc3c(c2)OCO3)[C@@H](NC(=O)c2ccccc2)c2cc(OCCCO)ccc2N1C(=O)Cc1ccc(OC)cc1 | 1.04
* Cc1c(-c2ccc(-c3ccc(Cl)c(Cl)c3)o2)nc(-c2ccccc2)c2c1CO[Si]2(C(C)C)C(C)C | -0.179
* COC(=O)C(CC#Cc1ccc2c(c1)[C@]1(C(=O)N2)[C@H](c2ccc(O)cc2)N2[C@H](c3ccccc3)[C@H](c3ccccc3)OC(=O)[C@H]2[C@@H]1C(=O)N1CCc2cc(OC)c(OC)cc2C1)C(=O)OC | 0.267

The molecule `C=C(CC1([C@@H](NP(=O)(c2ccccc2)c2ccccc2)[C@H]2C[C@@H]2CCN(C(=O)OCC)S(=O)(=O)c2ccc(C)cc2)CC1)c1ccccc1` , tested on Calmodulin-1 (Homo sapiens) (UniProt P0DP23), showed composite z-score of 1.88

Item `CCOC(=O)C1=C(C(=O)OCC)N(S(=O)(=O)CC[Si](C)(C)C)[C@H](c2ccccc2)CC1` was tested on Calmodulin-1 (Homo sapiens) (UniProt P0DP23); the reported composite z-score is 0.435

GET /values?item= `[N-]=[N+]=NCc1ccccc1C[C@]1(C(=O)N2CCCCC2)N=C(c2ccc(OCCCO)cc2)O[C@H]1c1ccccc1` &system= Calmodulin-1 (Homo sapiens) (UniProt P0DP23) returns composite z-score: 0.816

Case `COCCOC(=O)N1C(=O)[C@@]2(c3cc(C#Cc4ccc(OC)cc4)ccc31)[C@H](C(=O)N1CCCCCCC1)[C@H]1C(=O)O[C@H](c3ccccc3)[C@H](c3ccccc3)N1[C@@H]2c1ccccc1OCCO` , Calmodulin-1 (Homo sapiens) (UniProt P0DP23), composite z-score recorded as 2.42

Let me check: `C=CC[C@]1(C(=O)NCCCOC)N=C(c2ccc(OCCCO)cc2)O[C@H]1c1ccccc1` , system Calmodulin-1 (Homo sapiens) (UniProt P0DP23), measured composite z-score is 0.287

Here `COCCCNC(=O)[C@@H]1c2ccccc2C(=O)N(Cc2cc(C(F)(F)F)cc(C(F)(F)F)c2)[C@H]1c1ccc(CO)cc1` was tested on Calmodulin-1 (Homo sapiens) (UniProt P0DP23), and its composite z-score came to 0.0808

Bench note, Calmodulin-1 (Homo sapiens) (UniProt P0DP23): entry `COc1ccc([Si](C)(C)[C@H]2[C@H](CCO)O[C@@]3(C(=O)N(Cc4ccccc4)c4ccc(N(C=O)c5ccccc5)cc43)[C@@H]2C)cc1` , its composite z-score = 1.1
